System: EKVX
METHOD NOTES: NCI tumour cell line growth inhibition, 48 h
Active and inactive are the calls of the source. Rule as the data show it: active = GI50 up to about 1.1 µM and inactive = higher.
QUANTITY KIND: GI50

Here are 2 compounds together with their reported answers.
C=C1C(=O)O[C@@H]2C[C@]3(C)CC[C@]4(C)[C@H](CC[C@@H]5[C@@]6(C)CCC(=O)C(C)(C)[C@@H]6CC[C@]54C)[C@H]3[C@H]12 [OCHRACEOLIDE A]
19 µM (inactive)
CC1=C(/C(C)=N/NS(=O)(=O)c2ccc(C)cc2)Sc2ccccc2N1
68.7 µM (inactive)

Input line: Field request: GI50 | item: NC1CCCCC1NCCNC1CCCCC1N (stereo not given)
Output line: > 100 µM (inactive)

Input line: Also CC(=O)OC1CC2(c3ccccc3)C(=O)c3ccccc3N2O1 (stereo not given) ?
Output line: 78.3 µM (inactive)

Input line: Also need CCCCC1C=Cn2c(=O)oc3c(OC(C)C)c(OC(C)C)c(O)c1c32 (stereo not given) , thanks.
Output line: 29.9 µM (inactive)

Input line: Queued: N#CC1C2CCC3(CC2CCN1C(=O)c1ccccc1)OCCO3 (stereo not given)
Output line: > 100 µM (inactive)
